// data source = patent US6737383B1

tested on: pigweed; assay: Test B pre/postemergence pigweed; assay type: in vivo, Amaranthus retroflexus; conditions: Preemergence, Rate 500 g/ha; scale of 0 to 10 where 0 is no effect and 10 is complete control
measured_attribute: Redroot pigweed plant response rating
Answer field: number only, no words.

Recorded Redroot pigweed plant response rating, per entry:
1. CC(C)N(C(=O)n1oc(=O)n(CC(=O)N(C)C)c1=O)c1ccc(F)cc1 | 10
2. CC(C)N(C(=O)n1oc(=O)n(C2CCCO2)c1=O)c1ccc(F)cc1 (stereo not shown) | 0

Input line: Supply reported Redroot pigweed plant response rating belonging to this compound: CC(C)N(C(=O)n1oc(=O)n(C2CCCCCC2)c1=O)c1ccc(F)cc1F
Output line: 0

Input line: Supply reported Redroot pigweed plant response rating belonging to this compound: CC(C)N(C(=O)n1oc(=O)n(CCC(F)(F)F)c1=O)c1ccc(F)cc1F
Output line: 3
